TARGET SYSTEM: Cytochrome P450 3A4 (Homo sapiens)
RUN DESCRIPTION: Cytochrome panel assay with activity outcomes
CONDITION SUMMARY: recombinant CYP, pro-luciferin dealkylation, luminescence, p450-cyp3a4; series mostly up to 57.1 µM
Out of some 16,000 compounds screened, about 5,100 (32%) were called active. Roughly 25% stayed inconclusive and do not appear here. Calls come from the whole dose curve; as a rule, active = well fitted curve in the direction sought with a large enough effect; inconclusive = small, poorly fitted or top-dose-only effect, or effect the other way; inactive = no such curve, though single readings can be large or run the other way. Some of the results follow.
Pick one and only one: active, inactive

Reference set (9 entries):
compound=Cc1noc(C)c1-c1ccc2ncnc(N3CCOCC3)c2c1 assigned_class=active
compound=NCCCCCCCCCCNS(=O)(=O)c1cccc2c(Cl)cccc12 assigned_class=active
compound=COC(=O)[C@@]1(Cc2ccccc2)[C@H]2c3cc(C(=O)N4CCCC4)n(Cc4nc5ccccc5[nH]4)c3C[C@H]2CN1C(=O)c1ccccc1 assigned_class=active
compound=COCC(=O)N1CCC2(CCCN(C(=O)Nc3cccc(C#N)c3)C2)CC1 assigned_class=inactive
compound=Cc1noc(C)c1-c1ccc2ncnc(NCCN3CCOCC3)c2c1 assigned_class=active
compound="COC(=O)C1=C(C)N=C2SC(C)C(=O)N2C1/C=C/c1ccccc1 (stereo not given)" assigned_class=active
compound=CO[C@]1(NC(=O)CSCC#N)C(=O)N2C(C(=O)O)=C(CSc3nnnn3C)CS[C@H]21 assigned_class=inactive
compound=CCCc1nnc(SCC(=O)N2CCCCC2)n1CCCOC assigned_class=inactive
compound="CCCc1nnc(SCC(=O)N2CCCC(C)C2)n1CC1CCCO1 (stereo not given)" assigned_class=active

Let us examine a further case.
Prompt: Hi team, can someone confirm the assay call for "CCCCNS(=O)(=O)c1ccc(OC)c(Cl)c1Cl" ?
Completion: active

----------
TARGET SYSTEM: Cytochrome P450 3A4 (Homo sapiens) (UniProt P08684)
Sequence (P08684 whole entry, looked up): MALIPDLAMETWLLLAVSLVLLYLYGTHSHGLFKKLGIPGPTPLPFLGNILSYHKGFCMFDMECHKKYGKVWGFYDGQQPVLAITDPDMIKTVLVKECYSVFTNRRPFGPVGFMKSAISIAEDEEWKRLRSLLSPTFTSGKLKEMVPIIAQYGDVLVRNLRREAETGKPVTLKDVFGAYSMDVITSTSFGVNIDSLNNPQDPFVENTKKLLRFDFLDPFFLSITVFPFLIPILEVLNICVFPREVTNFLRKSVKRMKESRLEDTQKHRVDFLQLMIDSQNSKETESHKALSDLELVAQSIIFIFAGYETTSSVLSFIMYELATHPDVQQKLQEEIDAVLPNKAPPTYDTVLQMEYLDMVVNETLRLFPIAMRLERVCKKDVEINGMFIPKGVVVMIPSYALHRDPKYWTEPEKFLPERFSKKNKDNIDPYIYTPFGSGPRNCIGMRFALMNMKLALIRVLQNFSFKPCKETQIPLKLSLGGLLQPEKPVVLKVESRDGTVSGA
RUN DESCRIPTION: Cytochrome panel assay with activity outcomes
CONDITION SUMMARY: recombinant CYP, pro-luciferin dealkylation, luminescence, p450-cyp3a4; series mostly up to 57.1 µM
The whole screen tested about 16,000 compounds, of which about 5,100 (32%) were called active. Not shown: some 25% with an inconclusive outcome. The call rests on the fitted dose curve; in most records, active means well fitted curve in the direction sought with a large enough effect; inconclusive means small, poorly fitted or top-dose-only effect, or effect the other way; inactive means no such curve, though single readings can be large or run the other way. Some of the results follow.
Pick one and only one: active, inactive

Reference set (5 entries):
molecule=C/C(=N\NC(=O)CSCc1ccc(Cl)cc1)c1ccc2c(c1)OCCO2 assigned_class=active
molecule=CCOC(=O)c1sc2nc(CC(=O)OC)nc(NCc3ccc(F)cc3)c2c1C assigned_class=active
molecule="O=C(C1CCCN(S(=O)(=O)c2cccc3nsnc23)C1)N1CC=C(c2ccccc2)CC1 (stereo not given)" assigned_class=active
molecule=CCOC(=O)c1c(NC(=O)CSc2nnnn2C)sc(C)c1C assigned_class=active
molecule=O=C(C1CCN(S(=O)(=O)c2cccc3nsnc23)CC1)N1CCn2c1nc1ccccc12 assigned_class=active

Let us examine a further case.
Prompt: Hi team, can someone confirm the assay call for "CCOC(=O)c1c(NC(=O)CCc2ccc(CC)o2)sc(C)c1C" ?
Completion: active

----------
TARGET SYSTEM: Cytochrome P450 3A4 (Homo sapiens) (UniProt P08684)
RUN DESCRIPTION: Cytochrome panel assay with activity outcomes
CONDITION SUMMARY: recombinant CYP, pro-luciferin dealkylation, luminescence, p450-cyp3a4; series mostly up to 57.1 µM
Among all 16,000 compounds or so, about 5,100 (32%) were called active. Not shown: some 25% with an inconclusive outcome. The list shows a part of the results.
READOUT: AC50

compound=COCCn1c(=O)c(-c2cccc(C#N)c2)nc2cnc(OCc3ccccc3)nc21 data_value="10 µM (active)"
compound=CS(=O)(=O)N1CCC2(CCN(C(=O)Nc3cccc(C#N)c3)CC2)CC1 data_value=inactive
compound=N#CCCn1c(=O)c(-c2cccc(C#N)c2)nc2cnc(Oc3ccccc3)nc21 data_value=inactive
compound=COCCn1c(=O)c(-c2cccc(C#N)c2)nc2cnc(Oc3ccccc3)nc21 data_value="25.1 µM (active)"
compound=N#CCCn1c(=O)c(-c2ccc(F)cc2)nc2cnc(Oc3cccc(Cl)c3)nc21 data_value=inactive

Need AC50 for each of these compounds.
1. N#CCCn1c(=O)c(-c2ccc(F)cc2)nc2cnc(OCc3ccccc3)nc21
2. COCCn1c(=O)c(-c2cccc(C#N)c2)nc2cnc(Oc3ccc(OC)cc3)nc21
3. O=C(NC(NCc1ccccc1)C(Cl)(Cl)Cl)c1cccnc1 (stereo not given)
4. Nc1nc2c(nc(Br)n2[C@@H]2O[C@H]3COP(=O)(O)O[C@H]3[C@@H]2O)c(=O)[nH]1
5. CS(=O)(=O)N1CCC[C@@]2(CCN(C(=O)Nc3ccccc3)C2)C1

Completion:
1. 15.8 µM (active)
2. 2.51 µM (active)
3. 12.6 µM (active)
4. inactive
5. inactive
